Provenance of the data: the supplement of paper PMC12042874

TEST: amyloid nucleation score (Sup35N fusion, yeast selection) (log enrichment); library NNK2; higher = more nucleation; inactive = no reads after selection;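 further: zero at mode of non-aggregating sequences after 7 days selection at 30°C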
Could you please report measured amyloid nucleation score for the items listed next?
I'd appreciate a reply containing only the number, no unit.

[ask] Any idea what amyloid nucleation score was measured for TISLRGDMDSSCKGIEGSSL ?
[reply] -0.316

[ask] Consider the sequence shown here: CSHTVFGSVCGFTLFQVH What is its recorded amyloid nucleation score?
[reply] 4.06

[ask] Looking for the measured amyloid nucleation score of LARYFAKKLYNFYFLAFTGW , can you help?
[reply] 1.14

[ask] Need amyloid nucleation score, item LACTKQFQVAVVFPDYTFIA
[reply] 3.71

[ask] State the recorded amyloid nucleation score for this entry: PLPGFRIMFLWRQNALPVQP
[reply] 0.196

[ask] # amyloid nucleation score lookup, item VIKKQCCHTYSVLTFRILNC
[reply] 0.151

[ask] # input sequence: FIFIMGIFERLH ; wanted: its amyloid nucleation score
[reply] -1.54

[ask] Form field: reported amyloid nucleation score of VLYQGALRYGNVRRGHLIRF
[reply] 0.105

[ask] # get_value(readout='amyloid nucleation score', item= SQFAVRKEGTDSEEFLKSVV )
[reply] -0.197

[ask] Entry under review: SLLSPHPLD . Reported amyloid nucleation score?
[reply] 0.203

[ask] State the recorded amyloid nucleation score for this entry: FAPRSKPLRSLFEGLLF
[reply] 0.495

[ask] Entry HYISRHQLWILFFVKCVNSR : reported amyloid nucleation score = ?
[reply] 5.01

[ask] # lookup: amyloid nucleation score of VSPAHPNYFPISP
[reply] -0.889

[ask] GET /values?readout=amyloid nucleation score&item= AASWTPSCNCPPWVFHGWLL
[reply] 0.16

[ask] Please report the recorded amyloid nucleation score for WNFFLGMAIMGLRRSCL .
[reply] 4.1

----------
TEST: amyloid nucleation score (Sup35N fusion, yeast selection) (log enrichment); library NNK1; higher = more nucleation; inactive = no reads after selection
Classify as follows. Reported amyloid nucleation score greater than or equal to 0.5: 1.0. Reported amyloid nucleation score below: 0.0.

[ask] Is the recorded value of amyloid nucleation score equal to or greater than 0.5 for this substance? LCGEGRFLQTWRSLSFP
[reply] 0.0

[ask] Could you please find out whether ALYSQGSSTV has amyloid nucleation score that meets 0.5 or exceeds it?
[reply] 0.0

[ask] Determine whether this substance has amyloid nucleation score no lower than 0.5: RLRPTTAASSLCSVLVPR
[reply] 0.0

[ask] Kindly determine if amyloid nucleation score recorded for GTTLDYWRVMEMSGDFTSFC is above or exactly 0.5.
[reply] 0.0

[ask] State whether the measured amyloid nucleation score reaches 0.5, counting equality as reaching it, for TLSTRTIHSCSEYYSGMCVL
[reply] 0.0

[ask] Is reported amyloid nucleation score greater than or equal to 0.5 here: NYILFWRTSSNFECPYP
[reply] 0.0

[ask] Record HCMLGMFHWVRRQVYRSTKW ; criterion: amyloid nucleation score no lower than 0.5. Met?
[reply] 1.0

[ask] Reported amyloid nucleation score reaches at least 0.5 for SYVMGLVYLIYTCKYWFFSE ?
[reply] 0.0

[ask] Is it the case that YSNLIDGS has amyloid nucleation score reaching or exceeding 0.5?
[reply] 1.0

[ask] Threshold query (amyloid nucleation score >= 0.5) on RFIGVQQMVCVTYNWFKVLG
[reply] 1.0

[ask] Reported amyloid nucleation score reaches at least 0.5 for LARDYGFD ?
[reply] 0.0

[ask] Check this substance for amyloid nucleation score at or above 0.5: LFSLNTLCM
[reply] 1.0

[ask] API: above_or_equal(metric=amyloid nucleation score, cutoff=0.5) for item WTRCHK
[reply] 0.0

[ask] Does amyloid nucleation score meet or surpass 0.5 for PCINRFHGIGFHCRLWTVYV ?
[reply] 1.0

[ask] Given the entry YNVKVMCSVQSEMRGIT , answer whether its amyloid nucleation score meets or surpasses 0.5.
[reply] 0.0

[ask] Confirm if amyloid nucleation score reported for the substance YYLSCNDSKGYSMRQFMYDV is 0.5 or above.
[reply] 0.0

[ask] Could you tell me if the measured amyloid nucleation score of DRLWKSTWKGMTRLMRRSAE reaches 0.5 or more?
[reply] 0.0

----------
TEST: amyloid nucleation score (Sup35N fusion, yeast selection) (log enrichment); library NNK3; higher = more nucleation; inactive = no reads after selection
METRIC: amyloid nucleation score

WYAKCCKV | inactive
CMTFLNIYSNGQLSGTYCLF | 1.59
RCNLTCLGMIDVTIS | inactive
IDSNGYVLLVRDGREKVVRC | 0.204
YFPSYYVADFSSHLLMGQVY | inactive

[ask] Entry under review: WLWVGIGLRSYELLNEEW . Reported amyloid nucleation score?
[reply] inactive

[ask] Param item = SYWRLHVIIFLWFFYLRYFN ; retrieve measured amyloid nucleation score.
[reply] inactive

[ask] amyloid nucleation score for GPWGSNNMQICTYFQNLFIA ?
[reply] 1.73

[ask] Query: amyloid nucleation score; subject: GQHSRSLDTSACCPT
[reply] inactive

[ask] Which measured amyloid nucleation score value corresponds to YEMMCQYVYECWYIIDARRM ?
[reply] 0.06

[ask] Entry IIPRIALPVCFVPYGLRRSS : reported amyloid nucleation score = ?
[reply] inactive

[ask] Form field: reported amyloid nucleation score of RIIIVYR
[reply] inactive

[ask] Which amyloid nucleation score value belongs to DSYSIILCFHKNKLLVLLSP ?
[reply] 0.156

[ask] Which measured amyloid nucleation score value corresponds to PEGVSGIAE ?
[reply] inactive

[ask] Which measured amyloid nucleation score value corresponds to LKYLCYHRQCSLMPRCWMDR ?
[reply] inactive

[ask] Give the measured amyloid nucleation score of IRSTGLINFQYWKMKTFLII .
[reply] inactive

[ask] Give its amyloid nucleation score value. Item: MCLSMVKISKNKLSFTGFLI
[reply] inactive

[ask] Would you mind telling me what amyloid nucleation score value was observed for VYETELTFSARPRFCWCC ?
[reply] 0.094

[ask] Suppose we examine the substance YIVLKYSEMRTRVTDYRTTG ; what amyloid nucleation score value has been reported?
[reply] inactive

[ask] Can you share its amyloid nucleation score? I mean this substance: IRSIEPYPMHTTSW
[reply] -0.428

[ask] Please look up its amyloid nucleation score: SLLGISVFKPERANTGQRLV
[reply] 0.721

[ask] Would you mind telling me what amyloid nucleation score value was observed for IYPLMKTELGRTMILIDLLE ?
[reply] inactive

----------
TEST: amyloid nucleation score (Sup35N fusion, yeast selection) (log enrichment); library NNK3; higher = more nucleation; inactive = no reads after selection
METRIC: amyloid nucleation score

// solved cases for amyloid nucleation score follow
PWDDYTAQIGLYSFPPWLYV | inactive
CWADSDSVSKKSRIA | inactive
CYGLSRCTRAEAMCPKG | inactive
IVYPFSGLMPDGAFRKEFDA | inactive
FSRGVCTSYLSVRYGLCSTE | inactive

[ask] I'd like to know its amyloid nucleation score. The sequence in question is KPTWQKEFVR
[reply] 0.969

[ask] Query: amyloid nucleation score; subject: ISCLDGCFS
[reply] inactive

[ask] # amyloid nucleation score lookup, item RAALPMVFHRFLTFMDAFLV
[reply] 1.83

[ask] Sample FNMYFCVIWLCDSFLIMCG — what was its amyloid nucleation score?
[reply] inactive

----------
TEST: amyloid nucleation score (Sup35N fusion, yeast selection) (log enrichment); library NNK3; higher = more nucleation; inactive = no reads after selection
METRIC: amyloid nucleation score

Before answering, review these 5 worked examples.
ERSVPSGE | inactive
FFPCTGVRHSRDIAVV | inactive
YVLLVWDCRLFSVRISFRSV | inactive
QVKLGRTLTSGQGFTQLHSV | -0.852
SCYISNFLSGCKLFMNRFL | inactive

[ask] Item under review: LMETSSRYTFYMKGLHRTMS . Reported amyloid nucleation score?
[reply] 0.428

[ask] // lookup amyloid nucleation score for KINLLSCLPVLRYYWISSLA
[reply] inactive

----------
TEST: amyloid nucleation score (Sup35N fusion, yeast selection) (log enrichment); library NNK2; higher = more nucleation; inactive = no reads after selection
I'd be grateful if you could share measured amyloid nucleation score for these entries.
Answer with a number only.

[ask] So what's the measured amyloid nucleation score for this one? YNSNNRAILSLLHDQRNLYG
[reply] 0.643

[ask] Using the record for LGSVLLRFRH , report its amyloid nucleation score.
[reply] -0.469

[ask] Look up amyloid nucleation score for this substance: VMFLFGGCTDNS
[reply] 0.382

[ask] Name the recorded amyloid nucleation score for SMRDEVYIRFFMNRILSVRS .
[reply] -0.803

[ask] Consider the substance shown here: YLSLVKSPLSSLNSFWTWM What is its recorded amyloid nucleation score?
[reply] -0.348

[ask] Give the measured amyloid nucleation score of SHFRLCGGVWSSGLMCHGCF .
[reply] 1.61

[ask] GET /values?readout=amyloid nucleation score&item= VAQVWLSNVVMYLRRAENLT
[reply] 0.214

[ask] Returns the measured amyloid nucleation score for the input substance. Input: PFSCITRLQ
[reply] 2.48

[ask] Reported amyloid nucleation score for LRRTSVVIGRVRSSRLCGLR : what is it?
[reply] 9.34

[ask] Suppose we examine the substance QCGSSMFRMPVLNWTA ; what amyloid nucleation score value has been reported?
[reply] 0.734

[ask] Query: amyloid nucleation score; subject: VTRTDVKPKVVGRRRARLCL
[reply] 0.705

[ask] Param item = DYCLSSICFLIDVGESFERG ; retrieve measured amyloid nucleation score.
[reply] 0.171

[ask] Using the record for SMYSLTVVNLRVRFLVVWGW , report its amyloid nucleation score.
[reply] 0.615

[ask] Recorded amyloid nucleation score of QRLVSLYFRLSDGHMD , please.
[reply] 3.3

[ask] For the substance shown here, GVSVMKVLYLCTIDKALCFG , give the reported amyloid nucleation score.
[reply] 6.06

[ask] Give its amyloid nucleation score value. Item: CCVAGLFEWHWY
[reply] 8.41

[ask] State the recorded amyloid nucleation score for this entry: RTDFMHTIFLPCRGHGMSWF
[reply] 0.91

[ask] Using the record for ANTWVKHTLCVGRLQGDWGI , report its amyloid nucleation score.
[reply] -0.029

[ask] Using the record for LEGMFLPGFFSCVRFLWL , report its amyloid nucleation score.
[reply] -1.51

[ask] Fill in: amyloid nucleation score of IKRSTNISEMWHYSFGVTVL is ___
[reply] -1.09

[ask] Which amyloid nucleation score is listed for GYYRFLSSLLELTV ?
[reply] -0.628

[ask] What measured amyloid nucleation score goes with LIHLNNAMIEHCMFEVRSFG ?
[reply] -0.016

[ask] Given the entry TFLIGTV , report its measured amyloid nucleation score.
[reply] -1.01

[ask] # input substance: LRAVWATVIVSVAMSVSCPK ; wanted: its amyloid nucleation score
[reply] 5.07

[ask] // query amyloid nucleation score value for entry YSASQTWCKQPIDCFIRGQN
[reply] -0.605

[ask] Recorded amyloid nucleation score for VCRLFLYGQWLVGRRANSYS , please?
[reply] -0.731

[ask] What does the data say about its amyloid nucleation score? Entry: LVSNSSLSYPLDSYGSSRSD
[reply] -0.113

[ask] Look at this substance and give its reported amyloid nucleation score. LPIDVSNVGTFVEWIFFAIR
[reply] -1.5

[ask] Please report the recorded amyloid nucleation score for GSFENSTRTYVSIIRR .
[reply] 4.73

[ask] Consider the substance shown here: INIIMFNVFINLEHIYYSVG What is its recorded amyloid nucleation score?
[reply] 5.79

[ask] Any idea what its amyloid nucleation score is? The substance is QTFDYW
[reply] 0.256

[ask] Return reported amyloid nucleation score; argument: RTALLP
[reply] 1.58

[ask] Value lookup for amyloid nucleation score; key = RDREIVQSLLHVLSQASLFV
[reply] -0.456

[ask] // query amyloid nucleation score value for entry IRGSSIEKNRMWHVGLSLTW
[reply] -0.809

[ask] Entry under review: VMVGLALYLKARGSNVDCGL . Reported amyloid nucleation score?
[reply] 3
